molecular target: human mAChR M4 (Homo sapiens, UniProt P08173); construct: expressed in transfected cells; experiment: mAChR M4 cell-based functional assay (calcium mobilization, CHO-K1 hM4-Gqi5 cells); conditions: CHO-K1, % ACh maximum at 30 μM; human M4
Sequence (P08173 whole entry): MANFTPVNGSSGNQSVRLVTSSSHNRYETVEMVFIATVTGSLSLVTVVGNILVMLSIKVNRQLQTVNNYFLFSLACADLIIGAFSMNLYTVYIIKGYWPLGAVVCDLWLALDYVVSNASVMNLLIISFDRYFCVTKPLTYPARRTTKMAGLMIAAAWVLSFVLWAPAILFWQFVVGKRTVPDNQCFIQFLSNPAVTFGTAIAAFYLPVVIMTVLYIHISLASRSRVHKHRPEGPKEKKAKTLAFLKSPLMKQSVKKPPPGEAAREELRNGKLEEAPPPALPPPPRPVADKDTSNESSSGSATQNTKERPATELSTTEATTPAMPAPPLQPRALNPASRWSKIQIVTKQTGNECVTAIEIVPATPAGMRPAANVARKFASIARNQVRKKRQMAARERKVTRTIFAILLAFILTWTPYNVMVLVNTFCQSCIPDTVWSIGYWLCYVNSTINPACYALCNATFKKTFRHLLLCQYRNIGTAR
parameter: Emax at 30 µM (%)

Consider the following illustrative entries.
• Cc1ccc(F)c(Nc2cnc3c(c2)CN(c2ncc(C#N)cc2C)CC3)c1 = 92
• Cc1cc(C#N)cnc1N1CCc2ncc(-c3cccc(F)n3)cc2C1 = 91
• Cc1cc(C(=O)NCc2ccccn2)cnc1N1CCc2ncccc2C1 = 68
• [2H]C1([2H])Cc2ncc(Nc3cc(C)ncc3F)cc2C([2H])([2H])N1c1ncc(C#N)cc1C = 95
• Cc1cc(C(=O)NCc2cccc3cccnc23)cnc1N1CCc2ncccc2C1 = 84

a = Cc1cc(C#N)cnc1N1Cc2cc(C(F)(F)F)cnc2CC1C (stereo not shown)
b = Cc1cc(C(=O)NCc2ccnc3ccccc23)cnc1N1CCc2ncccc2C1
Enquiry: So which one has the bigger Emax at 30 µM here, a or b ? Answer format: the label of the selected item.
Return: a

----------
molecular target: human mAChR M4 (Homo sapiens, UniProt P08173); construct: expressed in transfected cells; experiment: mAChR M4 cell-based functional assay (calcium mobilization, CHO-K1 hM4-Gqi5 cells); conditions: positive allosteric modulator activity, increase in the EC20 acetylcholine response, CHO-K1 hM4-Gqi5 cells; read-out: Human M4 EC50
parameter: EC50 (nM)

I = Cc1cc(C(=O)NCc2cccc(F)c2)cnc1N1CCc2ncccc2C1
II = Cc1nc(Cl)c(C)c(N2CCc3ncc(-c4cnn(CC5CC5)c4)cc3C2)n1
III = Cc1cc(C#N)cnc1N1CCc2ncc(OCCCOc3ccccc3)cc2C1
Enquiry: Order all 3 entries above by recorded EC50, highest first, lowest last. Put the labels in the order asked and list them.
Return: III, I, II
(III: 6800 nM, I: 3130 nM, II: 211 nM)

A = Cc1cc(C(=O)NCc2ccc3nccnc3c2)cnc1N1CCc2ncccc2C1
B = Cc1nc(C)c(C)c(N2CCc3ncc(-c4ccc(N5CCC5)nc4)cc3C2)n1
Enquiry: Looking only at measured EC50, which entry is lower, A or B ? // return label of chosen record
Return: B
(B: 354 nM, A: 3480 nM)

1 = Cc1cc(C(=O)NCc2csc3ccccc23)cnc1N1CCc2ncccc2C1
2 = Cc1cc(C#N)nnc1N1CCc2ncc(-c3cn(C)nc3C)cc2C1
3 = [2H]C1([2H])Cc2ncc(Nc3ccncc3C)cc2C([2H])([2H])N1c1ncc(C#N)cc1C
4 = Cc1c(C#N)nnc(N2CCc3ncc(Nc4ccncc4F)cc3C2)c1C
5 = Cc1cnc2c(c1)CN(c1ncc(C(=O)NCc3cncs3)cc1C)CC2
Enquiry: Sort low-to-high on EC50, please. Answer format: the labels, in the requested order.
Return: 4, 3, 5, 2, 1
(4: 3 nM, 3: 59 nM, 5: 138 nM, 2: 764 nM, 1: 1150 nM)

----------
molecular target: human mAChR M4 (Homo sapiens); construct: expressed in transfected cells; test: mAChR M4 cell-based functional assay (calcium mobilization, CHO-K1 hM4-Gqi5 cells); conditions: positive allosteric modulator activity, increase in the EC20 acetylcholine response, CHO-K1 hM4-Gqi5 cells; read-out: Human M4 EC50
pEC50: −log10 of the molar value.
parameter: pEC50

* Cc1c(C#N)nnc(N2CCc3ncc(-c4cncnc4)cc3C2)c1C [compound 49] | 6.06

A = Cc1cc(C(=O)NCc2csc3ccccc23)cnc1N1CCc2ncc(C(F)(F)F)cc2C1 [Example 447]
B = Cc1nc(Cl)c(C)c(N2CCc3ncc(-c4c(C)nn(C)c4C)cc3C2)n1 [compound 193]
Enquiry: Smaller pEC50 value, A vs B ? When you have decided, please share the label of that item.
Return: A
(A: 5.78, B: 6.22)

1 = [2H]C1([2H])N(c2cnc3c(c2)CN(c2ncc(C#N)cc2C)CC3)c2ccnn2C([2H])([2H])C1([2H])[2H] [Example 417]
2 = Cc1c(C#N)nnc(N2CCc3ncc(Nc4cccnc4F)cc3C2)c1C [compound 119]
Enquiry: Among 1 and 2 , which shows a numerically higher pEC50 result? Kindly give the label for the entry you pick.
Return: 1
